Recorded values, source paper PMC3578163.

Molecular target: hpol ι^26–446 (Homo sapiens)
Sequence (Q9UNA4 26-446): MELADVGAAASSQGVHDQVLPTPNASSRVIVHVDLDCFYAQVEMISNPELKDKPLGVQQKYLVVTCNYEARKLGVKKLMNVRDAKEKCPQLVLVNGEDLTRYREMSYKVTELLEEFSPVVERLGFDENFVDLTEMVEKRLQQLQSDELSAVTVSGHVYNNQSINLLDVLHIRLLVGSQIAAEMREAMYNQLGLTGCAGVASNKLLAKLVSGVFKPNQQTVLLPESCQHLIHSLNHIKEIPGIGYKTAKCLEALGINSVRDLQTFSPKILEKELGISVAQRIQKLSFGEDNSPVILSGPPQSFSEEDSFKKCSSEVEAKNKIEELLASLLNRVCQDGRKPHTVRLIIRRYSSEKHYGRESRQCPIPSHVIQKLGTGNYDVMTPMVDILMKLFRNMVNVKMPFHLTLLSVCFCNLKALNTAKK
Assay: polymerase-catalyzed primer extension
Type: biochemical
Conditions: read-out: IC50 for inhibition of DNA polymerase activity; all four dNTPs 0.25 mM, MgCl2 5 mM; 20 nM enzyme, 200 nM DNA, 37 °C

{"Smiles str": "CC(C)c1ccc2c(c1)c(SC(C)(C)C)c(CC(C)(C)C(=O)O)n2Cc1ccc(Cl)cc1", "IC50 / µM": 8.2}
